Reference for the values: PubChem BioAssay (NCATS)

Test system: DIV17
METHOD: qHTS profiling for inhibitors of Plasmodium falciparum proliferation (AID 504749); also: nearly all actives have a fitted effect of over 60% in size
STATED_CONDITIONS: P. falciparum in erythrocytes, SYBR Green DNA, 72 h; series mostly up to 28.7 µM
Records with an inconclusive call do not appear. Activity calls are given as the source filed them. Calls follow the shape of the dose curve; as a rule, active = well fitted inhibition curve with a large enough effect; inconclusive = small, poorly fitted or top-dose-only effect; inactive = flat fitted curve, though single readings scatter.
Classes used: true (1) (active), false (0) (inactive)

| COMPOUND | GROUP_LABEL |
| --- | --- |
| CC(C)=CC1C(C(=O)OCc2cccc(Oc3ccccc3)c2)C1(C)C (stereo unspecified) | false (0) |
| O=P1(NCCCl)OCCCN1CCCl (stereo unspecified) | false (0) |
| CC(=O)Nc1cc([As](=O)(O)O)ccc1O | false (0) |
| CC[C@@H](CO)NC(=O)[C@@H]1C=C2c3cccc4[nH]cc(c34)C[C@H]2N(C)C1 | false (0) |
| CC(C)(C)NCC(O)c1cc(Cl)c(N)c(Cl)c1 (stereo unspecified) | true (1) |
| CC[N+](CC)(CC)CC | false (0) |

* * *

System: PC15
METHOD: qHTS profiling for inhibitors of Plasmodium falciparum proliferation (AID 504749); also: nearly all actives have a fitted effect of over 60% in size
STATED_CONDITIONS: P. falciparum in erythrocytes, SYBR Green DNA, 72 h; series mostly up to 28.7 µM
Results filed as inconclusive are left out. Calls of active or inactive are those of the source. Calls follow the shape of the dose curve; as a rule, active = well fitted inhibition curve with a large enough effect; inconclusive = small, poorly fitted or top-dose-only effect; inactive = flat fitted curve, though single readings scatter.
Possible outcomes: true = active, false = inactive

| COMPOUND | GROUP_LABEL |
| --- | --- |
| CCCC(C)(COC(N)=O)COC(=O)NC(C)C (stereo not given) | false |
| CCOC(=O)C1(c2ccccc2)CCN(CCC(C#N)(c2ccccc2)c2ccccc2)CC1 | true |
| COc1ccc(C(CN(C)C)C2(O)CCCCC2)cc1 (stereo not given) | false |
| O=c1[nH]c2ccccc2n1C1CCN(CCCC(c2ccc(F)cc2)c2ccc(F)cc2)CC1 | false |
| Nc1ccncc1 | false |
| C=C(C)[C@H]1Cc2c(ccc3c2O[C@@H]2COc4cc(OC)c(OC)cc4[C@@H]2C3=O)O1 | false |
| CC(C)=CC1C(C(=O)OCc2cccc(Oc3ccccc3)c2)C1(C)C (stereo not given) | false |
| Oc1cccc2cccnc12 | false |
| CN1CCN(C(=O)O[C@H]2c3nccnc3C(=O)N2c2ccc(Cl)cn2)CC1 | false |
| CC(=O)[C@H]1CC[C@H]2[C@@H]3CC[C@H]4C[C@H](O)CC[C@]4(C)[C@H]3C(=O)C[C@]12C | false |
| NCCc1cc(O)c(O)cc1O | false |
| CCCC1CCCCN1 (stereo not given) | false |
| O=P1(NCCCl)OCCCN1CCCl (stereo not given) | false |
| COc1ccccc1N1CCNCC1 | false |
| CC(C)(C)CC(C)(C)c1ccc(O)cc1 | false |
| CC[N+]1(C)CCCC(OC(=O)C(O)(c2ccccc2)c2ccccc2)C1 (stereo not given) | false |
| NCC1(CC(=O)O)CCCCC1 | false |
| CN1C(=S)CN=C(c2ccccc2)c2cc(Cl)ccc21 | false |
| CCN(C(C)=O)c1cccc(-c2ccnc3c(C#N)cnn23)c1 | false |
| CCC(C(N)=O)N1CCCC1=O (stereo not given) | false |
| CCN(CC)CCOC(=O)C(O)(c1ccccc1)c1ccccc1 | false |
| Fc1ccc(C(OCCN2CCN(CCCc3ccccc3)CC2)c2ccc(F)cc2)cc1 | true |
| Cc1cccc(C)c1NC1=NCCCS1 | false |
| CC1OC(C)OC(C)O1 (stereo not given) | false |
| NCC(CC(=O)O)c1ccc(Cl)cc1 (stereo not given) | false |

* * *

METHOD: Quantitative High-Throughput drug screen in 47 multiple myeloma cell lines against the NCATS MIPE library collection: XG1_PLB cell viability assay (AID 1919866); also: nearly all actives have a fitted effect of over 35% in size; also: potency is read from the fitted curve at half-maximal effect
STATED_CONDITIONS: CellTiter-Glo ATP, 48 h; series mostly up to 45.8 µM
Records with an inconclusive call do not appear. Active and inactive are the calls of the source. Calls come from the whole dose curve; as a rule, active = well fitted cell-killing curve with a large enough effect; inconclusive = small, poorly fitted or top-dose-only effect, or effect the other way; inactive = no such curve, though single readings can be large or run the other way.
READOUT: Potency

| MOLECULE | READOUT | TEST_RESULT |
| --- | --- | --- |
| C#CCN(C)[C@H](C)Cc1ccccc1 | Potency | inactive |
| CNCC(O)c1ccc(O)cc1 (stereo not given) | Potency | inactive |
| CN(C)CCc1ccc(O)cc1 | Potency | inactive |
| CC1=C2C[C@@H]3[C@@H](CC=C4C[C@@H](O)CC[C@@]43C)[C@@H]2CC[C@]12O[C@H]1C[C@H](C)CN[C@H]1[C@H]2C | Potency | inactive |
| CN(C)[C@@H]1C(=O)C(C(N)=O)=C(O)[C@@]2(O)C(=O)C3=C(O)c4c(O)cccc4[C@@](C)(O)[C@H]3C[C@@H]12 | Potency | inactive |
| COC[C@@H](NC(C)=O)C(=O)NCc1ccccc1 | Potency | inactive |
| Cn1cc(C2=C(c3cn(C4CCN(Cc5ccccn5)CC4)c4ccccc34)C(=O)NC2=O)c2ccccc21 | Potency | 5.26 µM (active) |
| CN(C)CCN(C)CCc1ccc(Cl)c(Cl)c1 | Potency | inactive |
| Cn1c(CCCC(=O)O)nc2cc(N(CCCl)CCCl)ccc21 | Potency | 14.8 µM (active) |
| O=C1CC[C@@]2(O)[C@H]3Cc4ccc(O)c5c4[C@@]2(CCN3CC2CC2)[C@H]1O5 | Potency | inactive |

* * *

SYSTEM_UNDER_TEST: N-terminal Xaa-Pro-Lys N-methyltransferase 1 (Homo sapiens)
METHOD: qHTS Assay for Inhibitors of N-terminal methyltransferase 1 (NTMT1): LOPAC validation of the NTMT1 SAHH-coupled ThioGlo3 Assay (AID 1347143);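 also: SAH from peptide methylation measured as thiol fluorescence via SAHH coupling and ThioGlo3; nearly all actives have a fitted effect of over 70% in size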
STATED_CONDITIONS: recombinant NTMT1, SAHH-coupled ThioGlo3 fluorescence; series mostly up to 114 µM
Inconclusive results are not listed. Calls of active or inactive are those of the source. The call rests on the fitted dose curve; in most records, active means well fitted inhibition curve with a large enough effect; inconclusive means small, poorly fitted or top-dose-only effect; inactive means no such curve, though single readings can be large or run the other way.
Labels: TRUE = active, FALSE = inactive

| COMPOUND | GROUP_LABEL |
| --- | --- |
| COc1ccc(C(CN(C)C)C2(O)CCCCC2)cc1 (stereo not drawn) | FALSE |
| CCC1(C2=NCCN2)Cc2ccccc2O1 (stereo not drawn) | FALSE |
| c1ccc(C2CC2)c(OCC2=NCCN2)c1 | FALSE |
| CCCN1CCC[C@@H]2Cc3[nH]ncc3C[C@H]21 | FALSE |
| NCC(CC(=O)O)c1ccc(Cl)cc1 (stereo not drawn) | FALSE |
| NN=C(N)N | FALSE |
| O=c1[nH]c2ccccc2n1CCCN1CCC(n2c(=O)[nH]c3cc(Cl)ccc32)CC1 | FALSE |
| c1ccc2c(c1)OCC(C1=NCCN1)O2 (stereo not drawn) | TRUE |

* * *

Tested on: CP335
METHOD: qHTS profiling for inhibitors of Plasmodium falciparum proliferation (AID 504749); also: nearly all actives have a fitted effect of over 60% in size
STATED_CONDITIONS: P. falciparum in erythrocytes, SYBR Green DNA, 72 h; series mostly up to 28.7 µM
Inconclusive results are not listed. Activity calls are given as the source filed them. Calls come from the whole dose curve; as a rule, active = well fitted inhibition curve with a large enough effect; inconclusive = small, poorly fitted or top-dose-only effect; inactive = flat fitted curve, though single readings scatter.
Outcome codes: Yes = active, No = inactive

| COMPOUND | GROUP_LABEL |
| --- | --- |
| Clc1ccc(COC(Cn2ccnc2)c2ccc(Cl)cc2Cl)cc1 (stereo not drawn) | Yes |
| COc1ccccc1N1CCNCC1 | No |
| CC1NCCOC1c1ccccc1 (stereo not drawn) | No |
| CC[N+]1(C)CCCC(OC(=O)C(O)(c2ccccc2)c2ccccc2)C1 (stereo not drawn) | No |
| CN(C)CCc1ccc(O)cc1 | No |
| Oc1cccc2cccnc12 | No |
| NN=C(N)N | No |
| O=C(O)c1ccc2[nH]cc(CCCCN3CC=C(c4ccccc4)CC3)c2c1 | No |

* * *

STATED_CONDITIONS: Ebola virus entry assay, blue channel fluorescence
Activity calls are given as the source filed them.
Labels: TRUE (active), FALSE (inactive)

| COMPOUND | GROUP_LABEL |
| --- | --- |
| O=C1Cc2cc(CCN3CCN(c4nsc5ccccc45)CC3)c(Cl)cc2N1 | TRUE |
| Cc1ccccc1C(=O)Nc1ccc(C(=O)N2CCCC(O)c3cc(Cl)ccc32)c(C)c1 (stereo not drawn) | TRUE |
| CC(C)C(=O)Nc1ccc([N+](=O)[O-])c(C(F)(F)F)c1 | FALSE |
| C[C@H]1c2cccc(O)c2C(O)=C2C(=O)[C@]3(O)C(O)=C(C(N)=O)C(=O)[C@@H](N(C)C)[C@@H]3[C@@H](O)[C@@H]21 | TRUE |
| CC(C)[N+](C)(CCOC(=O)C1c2ccccc2Oc2ccccc21)C(C)C | FALSE |
| COc1cc2nc(N(C)CCCNC(=O)C3CCCO3)nc(N)c2cc1OC (stereo not drawn) | TRUE |
| CCN(CC)C(=O)N[C@@H]1C=C2c3cccc4[nH]cc(c34)C[C@@H]2N(C)C1 | FALSE |
| CCN(CC)CCNC(=O)c1cc(Cl)c(N)cc1OC | FALSE |
| CC[C@]1(O)C[C@H]2CN(CCc3c([nH]c4ccccc34)[C@@](C(=O)OC)(c3cc4c(cc3OC)N(C=O)[C@H]3[C@@](O)(C(=O)OC)[C@H](OC(C)=O)[C@]5(CC)C=CCN6CC[C@]43[C@@H]65)C2)C1 | TRUE |
| O=c1[nH]c2ccccc2n1C1CCN(CCCC(c2ccc(F)cc2)c2ccc(F)cc2)CC1 | TRUE |
| CC(C)Nc1cccnc1N1CCN(C(=O)c2cc3cc(NS(C)(=O)=O)ccc3[nH]2)CC1 | FALSE |
| C[C@]12CCC(=O)C(O)=C1CC[C@@H]1[C@@H]2CC[C@]2(C)C(=O)CC[C@@H]12 | FALSE |
| CCC(=O)C(CC(C)N(C)C)(c1ccccc1)c1ccccc1 (stereo not drawn) | TRUE |
